Source of measurements: patent US11395857B2

- ASSAY PROCEDURE: Biodistribution of 68Ga-labeled peptide in mice bearing B16F10 mouse melanoma
- Format: in vivo, C57BL/6J mice
- CONDITIONS: liver, iv, total radioactivity, 2 h p.i. unblocked, C57BL/6J mice, B16F10 melanoma, read-out: Biodistribution, Liver

COMPOUND: CCCC[C@H](NC(=O)CN1CCC(NC(=O)CN2CCN(CC(=O)O)CCN(CC(=O)O)CCN(CC(=O)O)CC2)CC1)C(=O)N[C@H]1CC(=O)NCCCC[C@@H](C(N)=O)N(C)C(=O)[C@H](Cc2c[nH]c3ccccc23)N(C)C(=O)[C@H](CCCNC(=N)N)N(C)C(=O)[C@@H](Cc2ccccc2)NC(=O)[C@H](Cc2c[nH]cn2)N(C)C1=O [^68Ga-labeled CCZ01099, metal not drawn]
tissue uptake at 2 h / %ID/g: 0.44

###

The following molecules are shown together with reported tissue uptake at 1 h values.
- ASSAY PROCEDURE: Biodistribution of 177Lu-labeled αMSH analogues in mice bearing B16F10 mouse melanoma
- Type: in vivo, C57BL/6J mice
- CONDITIONS: male, mouse, seminal glands, iv, total radioactivity; 1 h p.i., C57BL/6J mice, B16F10 melanoma; read-out: Biodistribution, Seminal glands

MOLECULE: CCCC[C@H](NC(=O)CN1CCC(NC(=O)CN2CCN(CC(=O)O)CCN(CC(=O)O)CCN(CC(=O)O)CC2)CC1)C(=O)N[C@H]1CC(=O)NCCCC[C@@H](C(N)=O)N(C)C(=O)[C@H](Cc2c[nH]c3ccccc23)N(C)C(=O)[C@H](CCCNC(=N)N)N(C)C(=O)[C@@H](Cc2ccccc2)NC(=O)[C@H](Cc2c[nH]cn2)N(C)C1=O [^177Lu-labeled CCZ01099, metal not drawn]
tissue uptake at 1 h: 0.06 %ID/g

MOLECULE: CCCC[C@H](NC(=O)CN1CCC(NC(=O)[C@H](CCCCNC(=O)CN2CCN(CC(=O)O)CCN(CC(=O)O)CCN(CC(=O)O)CC2)NC(=O)[C@H](CCC(=O)O)NC(=O)CCCc2ccc(I)cc2)CC1)C(=O)N[C@H]1CC(=O)NCCCC[C@@H](C(N)=O)N(C)C(=O)[C@H](Cc2c[nH]c3ccccc23)N(C)C(=O)[C@H](CCCNC(=N)N)N(C)C(=O)[C@@H](Cc2ccccc2)NC(=O)[C@H](Cc2c[nH]cn2)N(C)C1=O [^177Lu-labeled CCZ01088, metal not drawn]
tissue uptake at 1 h: 0.52 %ID/g

MOLECULE: CCCC[C@H](NC(=O)CN1CCC(NC(=O)[C@H](CCCCNC(=O)CN2CCN(CC(=O)O)CCN(CC(=O)O)CCN(CC(=O)O)CC2)NC(=O)[C@H](CCC(=O)O)NC(=O)CCCc2ccc(I)cc2)CC1)C(=O)N[C@H]1CC(=O)NCCCC[C@@H](C(N)=O)N(C)C(=O)[C@H](Cc2c[nH]c3ccccc23)NC(=O)[C@H](CCCNC(=N)N)N(C)C(=O)[C@@H](Cc2ccccc2)NC(=O)[C@H](Cc2c[nH]cn2)NC1=O [^177Lu-labeled CCZ01118, metal not drawn]
tissue uptake at 1 h: 0.5 %ID/g

###

- ASSAY PROCEDURE: Biodistribution of 68Ga-labeled peptide in mice bearing B16F10 mouse melanoma
- Assay type: in vivo, C57BL/6J mice
- CONDITIONS: lungs, iv, total radioactivity, 1 h p.i. unblocked, C57BL/6J mice, B16F10 melanoma, read-out: Biodistribution, Lungs
- Method: The B16-F10 melanoma cell line (Mus musculus) used in the tumor model was obtained commercially from ATTC (CRL-6475). […] Similar to PET/CT imaging, tumour-bearing mice were injected with 1-2 MBq of ^68Ga-labeled CCZ01099 via tail vein under anesthesia with or without co-injection of 0.5 mg of MC1R-specific inhibitor BMS 470539. […] Minimal background tissue radioactivity accumulation was observed, except for kidney, which is expected as the radiolabeled peptides were cleared through the renal pathway.

COMPOUND: CCCC[C@H](NC(=O)CN1CCC(NC(=O)CN2CCN(CC(=O)O)CCN(CC(=O)O)CCN(CC(=O)O)CC2)CC1)C(=O)N[C@H]1CC(=O)NCCCC[C@@H](C(N)=O)N(C)C(=O)[C@H](Cc2c[nH]c3ccccc23)N(C)C(=O)[C@H](CCCNC(=N)N)N(C)C(=O)[C@@H](Cc2ccccc2)NC(=O)[C@H](Cc2c[nH]cn2)N(C)C1=O [^68Ga-labeled CCZ01099, metal not drawn]
tissue uptake at 1 h (%ID/g): 0.74
